Tested on: SF-268 CNS
Experiment: NCI-60 one-dose screen, 48 h (100 = growth as untreated, 0 = no growth, -100 = all killed)
Settings: 10 µM unless noted
This is part of a sample that, as a whole, favours compounds with a hit. Of some 83,000 tested, about 20% had one in any assay.
Lab note: anything with growth below 90% is marked fulfilled; values at 90% or higher are marked not fulfilled.

{"compound": "COc1cc(C2=NN(C(C)=O)C(c3ccc(OC(C)=O)cc3OC(C)=O)O2)c(OC(C)=O)c2ccccc12 (centres undefined)", "assigned_category": "fulfilled"}
{"compound": "COC1=CC(c2ccc[nH]2)=N/C1=C\\c1[nH]c(C)c(C(=O)CCC(=O)Oc2ccc3c(c2)CCC2C3CC[C@]3(C)C(=O)CC[C@@H]23)c1C (some centres undefined)", "assigned_category": "fulfilled"}
{"compound": "Cc1ccc(NC(=O)Nc2ccc(-c3cccnc3)cc2N2CCC(CO)CC2)cc1", "assigned_category": "fulfilled"}
{"compound": "CN(C)c1ccc2[nH]c3c(C(N)=O)cc(=O)c(=O)c=3oc2c1", "assigned_category": "fulfilled"}
{"compound": "COc1cc2c(-c3nc4cc(Cl)c(F)cc4s3)cc(=O)oc2c(C)c1OC", "assigned_category": "fulfilled"}
{"compound": "O=C(/C(=N/O)S(=O)(=O)c1ccccc1)c1cccs1", "assigned_category": "not fulfilled"}
{"compound": "c1ccc(-c2nn[nH]n2)c(-c2ccc(CN3CCN(c4nsc5ccccc45)CC3)cc2)c1", "assigned_category": "not fulfilled"}
{"compound": "CCCCC1Nc2nc(SC)n(C)c(=O)c2CN(Cc2ccccc2)C1=O (centres undefined)", "assigned_category": "not fulfilled"}
